pIC50: −log10 of the molar value.
Let's go through some recorded pIC50 values for Elastase (Homo sapiens) together.

{"Compound": "CC(C)C[C@H](NC(=O)OCc1ccccc1Cl)C(=O)N[C@@H](C[C@@H]1CCNC1=O)C(O)S(=O)(=O)O (some centres unmarked)", "System": "Elastase (Homo sapiens)", "Property": "pIC50", "Result": "< 4.00"}

Now for the compound whose pIC50 we want.
# pIC50 measured on Elastase (Homo sapiens) for item CC(C)C[C@H](NC(=O)OCc1cccc(C(F)(F)F)c1)C(=O)N[C@@H](C[C@@H]1CCNC1=O)C(O)S(=O)(=O)O (some centres unmarked) = < 4.00
